Origin of the recorded values: the supplement of paper PMC9262897

tested on: E. coli TESEC Mtb Alr; test: growth (OD600 after 10 h); higher = more growth (less inhibition); conditions: arabinose 10000000 nM; compound 0.1 mM; raw OD600 reference: median of DMSO wells 0.146, cell-free background 0.041
Structures can show the parent of a compound that is named as a salt.
parameter: growth
Quick one: just the number, no unit, thanks!

Per the records, this molecule ( O=P(O)(O)C(O)(Cn1ccnc1)P(=O)(O)O [Zoledronic acid hydrate] ) has growth equal to 0.134

Reported growth of NC[C@H]1O[C@H](O[C@H]2[C@H](O[C@@H]3O[C@H](CO)[C@@H](O)[C@H]3O)[C@@H](O)[C@H](N)C[C@@H]2N)[C@H](N)[C@@H](O)[C@@H]1O [Ribostamycin sulfate salt] : 0.138

So, CCN1C(=O)NC(c2ccccc2)C1=O (stereo unspecified) [Ethotoin] ? Its growth was 0.142

GET /value?item= COc1ccc2cc([C@@H](C)C(=O)O)ccc2c1 [(R) -Naproxen sodium salt] &field=growth returns 0.141

Looking up Clc1ccc(C(c2ccccc2Cl)C(Cl)Cl)cc1 (stereo unspecified) [Mitotane] , I see its growth listed as 0.133

The reported growth of the molecule CCC1(C)CC(=O)NC1=O (stereo unspecified) [Ethosuximide] was 0.141

Noted for CCN(CC)CCOc1ccc(C(=C(Cl)c2ccccc2)c2ccccc2)cc1 [Clomiphene citrate (Z,E)] : its growth reads 0.0428

For CC(CNC1CCCCC1)OC(=O)c1ccccc1 (stereo unspecified) [Hexylcaine hydrochloride] the molecule record lists growth as 0.158

Entry under test: O=C(NCC1CCCCN1)c1cc(OCC(F)(F)F)ccc1OCC(F)(F)F (stereo unspecified) [Flecainide acetate] . Its growth was 0.143

The value of growth measured for the molecule Nc1ccc(S(=O)(=O)NC(=O)c2ccccc2)cc1 [Sulfabenzamide] turned out to be 0.156

Entry O=C(O)/C=C/c1ccc(Cn2ccnc2)cc1 [Ozagrel hydrochloride] , growth reported as 0.143

Query Cc1c(-c2ccccc2)oc2c(C(=O)OCCN3CCCCC3)cccc2c1=O [Flavoxate hydrochloride] yields growth of 0.139

growth measured on COc1cc(C(=O)N2CCOCC2)cc(OC)c1OC [Trimetozine] = 0.14

Briefly, growth measured for CC(=O)Oc1cc(C(C)C)c(OCCN(C)C)cc1C [Moxisylyte hydrochoride] : 0.14

Entry CCS(=O)(=O)CCn1c([N+](=O)[O-])cnc1C [Tinidazole] , growth reported as 0.139

molecule CN(C)CCC=C1c2ccccc2COc2ccccc21 [Doxepin hydrochloride] , growth observed: 0.144

According to the records, this molecule NC1CCN(c2nc3c(cc2F)c(=O)c(C(=O)O)cn3-c2ccc(F)cc2F)C1 (stereo unspecified) [Tosufloxacin hydrochloride] displays growth of 0.0575

Notebook: CC1CNc2c(cccc2S(=O)(=O)N[C@@H](CCCNC(=N)N)C(=O)N2CC[C@@H](C)C[C@@H]2C(=O)O)C1 (stereo partly specified) [Argatroban] , growth read as 0.144

The reported growth of the molecule CCCN(CCC)CCc1cccc2c1CC(=O)N2 [Ropinirole HCl] was 0.146

The reported value for N[C@H]1CONC1=O [(S)-(-)-Cycloserine] in terms of growth is 0.108

growth reading for COc1ccccc1OCC(O)COC(N)=O (stereo unspecified) [Methocarbamol] : 0.141
